biological target: T1, human c-Met ECD-Fc-Flis (human); assay: HGF-blocking ELISA: HGF signal on coated c-Met ECD-Fc-Flis; Ab 7812.50 ng/mL
T1 construct: c-Met ECD fused to Fc with flag- and His-tag at the C-terminus; also called human c-Met extracellular domain (ECD)-Fc-Flis fusion; human c-Met-Flis-Fc ECD
T1 sequence (chain, as listed by the source): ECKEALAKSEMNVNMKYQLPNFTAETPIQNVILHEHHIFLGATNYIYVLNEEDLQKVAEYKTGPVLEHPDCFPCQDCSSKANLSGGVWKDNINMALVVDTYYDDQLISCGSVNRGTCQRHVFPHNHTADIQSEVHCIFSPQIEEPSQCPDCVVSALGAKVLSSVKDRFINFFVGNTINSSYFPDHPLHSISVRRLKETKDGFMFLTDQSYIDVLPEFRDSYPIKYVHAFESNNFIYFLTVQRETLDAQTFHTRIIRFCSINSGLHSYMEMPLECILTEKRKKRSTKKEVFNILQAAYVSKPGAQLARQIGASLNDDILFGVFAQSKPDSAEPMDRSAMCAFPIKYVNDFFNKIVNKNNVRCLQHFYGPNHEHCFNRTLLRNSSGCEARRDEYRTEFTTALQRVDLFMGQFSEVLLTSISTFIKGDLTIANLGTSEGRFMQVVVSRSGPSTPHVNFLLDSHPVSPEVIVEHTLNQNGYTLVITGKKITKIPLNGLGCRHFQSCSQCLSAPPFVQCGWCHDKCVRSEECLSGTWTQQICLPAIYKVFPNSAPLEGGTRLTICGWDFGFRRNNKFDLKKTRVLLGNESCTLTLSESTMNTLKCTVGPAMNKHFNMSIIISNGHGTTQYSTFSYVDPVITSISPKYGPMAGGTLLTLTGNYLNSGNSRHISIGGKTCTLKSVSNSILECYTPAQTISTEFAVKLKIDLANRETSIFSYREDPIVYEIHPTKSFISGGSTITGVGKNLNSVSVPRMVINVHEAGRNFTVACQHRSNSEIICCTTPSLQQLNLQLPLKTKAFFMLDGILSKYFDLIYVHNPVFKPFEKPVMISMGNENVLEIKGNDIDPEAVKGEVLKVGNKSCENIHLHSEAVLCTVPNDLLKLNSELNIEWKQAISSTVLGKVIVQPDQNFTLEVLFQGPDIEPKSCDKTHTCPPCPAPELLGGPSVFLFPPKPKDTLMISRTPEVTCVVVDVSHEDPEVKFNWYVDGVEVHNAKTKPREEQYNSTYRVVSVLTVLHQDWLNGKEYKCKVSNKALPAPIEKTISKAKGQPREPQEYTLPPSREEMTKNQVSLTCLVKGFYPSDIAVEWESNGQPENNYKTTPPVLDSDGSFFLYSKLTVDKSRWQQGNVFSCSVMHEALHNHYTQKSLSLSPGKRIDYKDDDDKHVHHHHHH
Each item that follows carries a reported AVG A450 nm.
reported.property: AVG A450 nm (A450 nm)

[
  {
    "binder": "D11-8B8 (antibody, human IgG2, kappa, V domains shown, Human engineered IgG2 kappa c-Met antibody; also called Mab D11-8B8; D11-8B8 IgG2) VH: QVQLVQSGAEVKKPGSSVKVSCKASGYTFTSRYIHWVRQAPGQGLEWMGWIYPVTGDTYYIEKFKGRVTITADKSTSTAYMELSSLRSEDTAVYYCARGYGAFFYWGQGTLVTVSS VL: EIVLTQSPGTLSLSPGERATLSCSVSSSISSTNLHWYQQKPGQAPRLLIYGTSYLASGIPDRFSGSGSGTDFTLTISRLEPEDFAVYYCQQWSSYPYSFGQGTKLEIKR",
    "measure.unit": "A450 nm",
    "number": 1.24
  },
  {
    "binder": "C8-6 (antibody, human IgG2, kappa, V domains shown, Named IgG4 kappa; also called C8-6 IgG4) VH: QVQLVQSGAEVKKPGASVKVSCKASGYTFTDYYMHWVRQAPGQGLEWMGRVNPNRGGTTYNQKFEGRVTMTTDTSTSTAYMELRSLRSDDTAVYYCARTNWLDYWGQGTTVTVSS VL: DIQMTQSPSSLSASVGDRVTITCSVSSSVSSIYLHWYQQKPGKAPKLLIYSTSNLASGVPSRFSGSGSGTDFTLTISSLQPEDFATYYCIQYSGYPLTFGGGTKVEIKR",
    "measure.unit": "A450 nm",
    "number": 0.95
  },
  {
    "binder": "C8-co-16 (antibody, human IgG2, kappa, V domains shown, Named IgG4 kappa; also called C8-co-16 IgG4) VH: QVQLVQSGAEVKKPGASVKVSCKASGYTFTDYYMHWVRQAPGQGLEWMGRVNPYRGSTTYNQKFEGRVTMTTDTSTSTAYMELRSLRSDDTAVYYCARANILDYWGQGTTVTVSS VL: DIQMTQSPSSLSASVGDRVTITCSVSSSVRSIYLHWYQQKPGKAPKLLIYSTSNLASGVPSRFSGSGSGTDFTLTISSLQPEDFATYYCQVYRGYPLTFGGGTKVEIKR",
    "measure.unit": "A450 nm",
    "number": 0.57
  }
]
